Let's look at some pIC50 data for UniProtKB P36897 that I collected from the literature.
pIC50: −log10 of the molar value.

Worked set:
- compound string: "Fc1ccc(Cl)cc1-c1cc(-c2coc3cnccc23)c2cccnc2n1"
  pIC50: "> 6.00"
- compound string: "Clc1cccc2c(Nc3ccnc(Nc4ccc(N5CCNCC5)cc4)n3)cnnc12"
  pIC50: "> 8.00"
- compound string: "COc1nc(-c2cccc(Cl)c2)c2c(N)c(C(N)=O)sc2n1"
  pIC50: "> 7.00"
- compound string: "Cc1nn(CC(F)(F)F)cc1Nc1cc(Nc2cnnc3c(Cl)cccc23)ccn1"
  pIC50: "> 8.30"
- compound string: "Cc1ccc(-c2nc(OCCCn3cccn3)nc3sc(C(N)=O)c(N)c23)o1"
  pIC50: "6.30 to 7.00"

Okay, now this molecule:
Q: Hi! What's the reported pIC50 for `COc1cc(-c2cnc3sc(NCCc4ccncc4)nn23)cc(OC)c1OC` on UniProtKB P36897?
Result: 6.32
